Reference source: ChEMBL document CHEMBL4020815

Below, each of the compounds is paired with its reported solubility thermodynamic at 20 h value.
# TEST: Equilibrium aqueous solubility of the compound at pH 7.5 after 20 hrs by HPLC method
# Format: physicochemical
Write the number in µg/mL without appending the unit.

Recorded results for 2 compounds are shown here.
STRUCTURE STRING: N#Cc1ccc(S(=O)(=O)Nc2cc3c(=O)[nH]ccc3cc2F)cc1
UOM: µg/mL
solubility thermodynamic at 20 h: 230

STRUCTURE STRING: N#Cc1ccc(S(=O)(=O)Nc2ccc3cc[nH]c(=O)c3c2)cc1
UOM: µg/mL
solubility thermodynamic at 20 h: 160

Turning now to a further compound:
Input: Give its solubility thermodynamic at 20 h value. Item: `O=c1[nH]ccc2cc(F)c(NS(=O)(=O)c3ccc(N4CC[C@@H](O)C4)s3)cc12`
Output: 20

---

Below, each of the molecules is paired with its reported concentration at 1 h value.
# TEST: Plasma concentration in CD-1 mouse at 10 mg/kg, po after 1 hr by LC-MS/MS method
# Assay type: ADME, organism-based
Write the number in µM without appending the unit.

MOLECULE: O=c1[nH]ccc2cc(F)c(NS(=O)(=O)c3ccc(N4C[C@H](O)C(F)(F)C4)s3)cc12
UOM: µM
concentration at 1 h: 19.3

Input: Give its concentration at 1 h value. Item: `O=c1[nH]ccc2cc(F)c(NS(=O)(=O)c3ccc(N4CCC[C@@H](O)C4)s3)cc12`
Output: 1.7

Input: Give its concentration at 1 h value. Item: CCC1(C)CC(c2ccc(S(=O)(=O)Nc3cc4c(=O)[nH]ccc4cc3F)s2)=CNC1=O (centres undefined)
Output: 10.5

Input: Give its concentration at 1 h value. Item: O=c1[nH]ccc2cc(F)c(NS(=O)(=O)c3ccc(N4C[C@@H](O)[C@@H](F)C4)s3)cc12 (stereo in doubt)
Output: 9.1

Input: Give its concentration at 1 h value. Item: `O=c1[nH]ccc2cc(F)c(NS(=O)(=O)c3ccc(N4CC[C@@H](O)C4)s3)cc12`
Output: 8.5

Input: Give its concentration at 1 h value. Item: `O=c1[nH]ccc2cc(F)c(NS(=O)(=O)c3ccc(N4CC[C@H](O)C4)s3)cc12`
Output: 4.7

Input: Give its concentration at 1 h value. Item: `O=c1[nH]ccc2cc(F)c(NS(=O)(=O)c3ccc(N4CCC[C@H](O)C4)s3)cc12`
Output: 6.7

Input: Give its concentration at 1 h value. Item: `O=c1[nH]ccc2cc(F)c(NS(=O)(=O)c3ccc(N4CCC(O)CC4)s3)cc12`
Output: 4

Input: Give its concentration at 1 h value. Item: `CC1(C)CC(c2ccc(S(=O)(=O)Nc3cc4c(=O)[nH]ccc4cc3F)s2)=CNC1=O`
Output: 30.6

---

# TEST: Equilibrium aqueous solubility of the compound at pH 6 after 20 hrs by HPLC method
# Format: physicochemical
MEASUREMENT TYPE: solubility thermodynamic at 20 h (µg/mL)
Write the number in µg/mL without appending the unit.

STRUCTURE STRING: N#Cc1ccc(S(=O)(=O)Nc2ccc3cc[nH]c(=O)c3c2)cc1
READING: 40

Input: Give its solubility thermodynamic at 20 h value. Item: `N#Cc1ccc(S(=O)(=O)Nc2cc3c(=O)[nH]ccc3cc2F)cc1`
Output: 20
